# target-or-system: ScBzz1-D2
# assay-notes: SPOT peptide array binding signal intensity (averaged, normalized) (arbitrary units (background-subtracted, floor 0; scale differs between SH3 domains)); higher = stronger binding of the SH3 domain to the peptide
test-readout: SPOT peptide array binding signal intensity

[[record]]
binder = "LRIKRKPVQTFFEFI"
bound_operator = "="
reported_result = 49.5

[[record]]
binder = "SHRLWLYAAPKRPKT"
bound_operator = "="
reported_result = 71

[[record]]
binder = "ERPKRRAPPPVPKKP"
bound_operator = "="
reported_result = 66

[[record]]
binder = "RPKRRAPPPVPKKPS"
bound_operator = "="
reported_result = 75.5

[[record]]
binder = "APKHAPPPVPNETDN"
bound_operator = "≤"
reported_result = 0

[[record]]
binder = "MKRSRPSRSIPYTTP"
bound_operator = "="
reported_result = 23

[[record]]
binder = "NRPAIRIPSLKKPAL"
bound_operator = "="
reported_result = 12.5

